System: KM20L2 colon
Test: NCI tumour cell line growth inhibition, 48 h
Assay Metric: TGI (µM)
I only need the number, in µM, no unit after it.

Compound | Recorded Number
CC12OOC(c3ccccc31)c1c2ccc2ccccc12 (stereo not drawn) | 11.3

Return TGI for the following compound: `Cc1cc([N+](=O)[O-])ccc1Sc1c2ccccc2nc2cc(Cl)ccc12`
44.2

----------
Parameter: log10(TGI). Scope: all listed entries.
Test system: SK-MEL-5 melanoma
Experiment: NCI tumour cell line growth inhibition, 48 h
Transform log10 | Measure TGI | Unit µM

Compound | log10(TGI)
CN(C)CCNc1nc2ccccc2c2c1CCCC2 | 1.51

Give a short answer stating reported log10(TGI) for `OCc1cc2c(ccc3sc4ccc5sc6ccc7ncccc7c6c5c4c32)s1` .
1.07

Recall and state the measured log10(TGI) for CCCC(=O)Nc1cc(/C=C/C(=O)N2CC(CCl)c3c2cc(OCc2ccccc2)c2[nH]cc(C)c32)n(C)c1 (centres undefined) .
-0.88

Recall and state the measured log10(TGI) for `COc1ccc(N=Cc2c(O)ccc3c2oc2cc(Cl)c(O)c(Cl)c23)cc1` .
1.44

Return the recorded log10(TGI) value; entry: `Clc1ccc(Nc2nnc(CCCCCCCCc3nnc(Nc4ccc(Cl)cc4)o3)o2)cc1`
1.81

Supply reported log10(TGI) belonging to this compound: O=[N+]([O-])c1ccc(C2CC(c3ccccc3Cl)=Nc3ccccc3S2)cc1 (centres undefined)
1.11
